Biological target: T1, recombinant cyno CD46 antigen (cynomolgus, UniProt A0A2K5WCL8 35-328)
T1 construct: extracellular domain; Plate-coated antigen of the ELISA; also called cynomolgus CD46 extracellular domain
T1 sequence: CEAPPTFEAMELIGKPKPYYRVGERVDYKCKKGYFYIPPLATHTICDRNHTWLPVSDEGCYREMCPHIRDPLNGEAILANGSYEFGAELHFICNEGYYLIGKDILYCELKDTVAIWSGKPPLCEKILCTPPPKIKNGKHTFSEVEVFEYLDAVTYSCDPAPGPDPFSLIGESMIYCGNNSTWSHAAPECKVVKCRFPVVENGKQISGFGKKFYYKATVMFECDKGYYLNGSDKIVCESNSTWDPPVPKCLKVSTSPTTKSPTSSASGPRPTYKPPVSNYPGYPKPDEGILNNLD
Experiment: ELISA, coated cyno CD46; EC50 at pH 7.4 over EC50 at pH 6.0
readout: ratio (ph 7.4/pH 6.0)

BA-133-04-04 (antibody, V domains shown, the killing assays used the ADC form; also called CPE hit BA133-04-04) VH: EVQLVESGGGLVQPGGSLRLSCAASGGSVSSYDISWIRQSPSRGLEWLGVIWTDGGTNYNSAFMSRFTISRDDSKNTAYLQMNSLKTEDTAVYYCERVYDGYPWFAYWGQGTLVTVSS VL: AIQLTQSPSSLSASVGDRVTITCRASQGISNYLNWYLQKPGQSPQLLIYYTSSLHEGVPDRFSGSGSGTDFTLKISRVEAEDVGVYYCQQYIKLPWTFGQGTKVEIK	13
BAP133-2-02-12 (antibody, V domains shown, also called BAP133-02-02-12; CPE hit BAP133-2-02-12) VH: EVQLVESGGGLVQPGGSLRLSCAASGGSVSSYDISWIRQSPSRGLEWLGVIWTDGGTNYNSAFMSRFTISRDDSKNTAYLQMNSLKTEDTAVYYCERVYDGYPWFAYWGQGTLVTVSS VL: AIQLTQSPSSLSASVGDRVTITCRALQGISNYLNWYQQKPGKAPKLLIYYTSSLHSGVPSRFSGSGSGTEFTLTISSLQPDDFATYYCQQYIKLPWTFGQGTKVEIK	13.3
BA-133-04-03 (antibody, V domains shown, also called CPE hit BA133-04-03) VH: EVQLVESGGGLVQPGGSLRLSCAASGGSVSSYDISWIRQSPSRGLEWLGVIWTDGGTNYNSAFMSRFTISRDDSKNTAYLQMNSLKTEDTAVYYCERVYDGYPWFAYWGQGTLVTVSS VL: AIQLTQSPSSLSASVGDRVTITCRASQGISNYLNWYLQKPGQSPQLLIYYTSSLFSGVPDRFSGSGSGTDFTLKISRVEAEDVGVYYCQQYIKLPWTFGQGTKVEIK	7.14

Now, please, on to the next binder.
Tell me its ratio (ph 7.4/pH 6.0) given BA-133-04-01 (antibody, V domains shown, also called CPE hit BA133-04-01) VH: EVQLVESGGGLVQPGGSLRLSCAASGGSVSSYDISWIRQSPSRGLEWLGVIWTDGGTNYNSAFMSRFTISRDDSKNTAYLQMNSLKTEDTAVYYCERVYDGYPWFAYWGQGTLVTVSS VL: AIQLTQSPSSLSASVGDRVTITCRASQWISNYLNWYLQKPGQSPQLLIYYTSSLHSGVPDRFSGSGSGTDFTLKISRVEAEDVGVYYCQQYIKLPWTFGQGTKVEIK as the entry. 9.2
